target: Human recombinant DHX9 protein (Homo sapiens (Human), UniProt Q08211); test: DHX9 ATPase assay (ADP-Glo); details: read-out: DHX9 Biochemical Inflection Point
Sequence (Q08211 whole entry): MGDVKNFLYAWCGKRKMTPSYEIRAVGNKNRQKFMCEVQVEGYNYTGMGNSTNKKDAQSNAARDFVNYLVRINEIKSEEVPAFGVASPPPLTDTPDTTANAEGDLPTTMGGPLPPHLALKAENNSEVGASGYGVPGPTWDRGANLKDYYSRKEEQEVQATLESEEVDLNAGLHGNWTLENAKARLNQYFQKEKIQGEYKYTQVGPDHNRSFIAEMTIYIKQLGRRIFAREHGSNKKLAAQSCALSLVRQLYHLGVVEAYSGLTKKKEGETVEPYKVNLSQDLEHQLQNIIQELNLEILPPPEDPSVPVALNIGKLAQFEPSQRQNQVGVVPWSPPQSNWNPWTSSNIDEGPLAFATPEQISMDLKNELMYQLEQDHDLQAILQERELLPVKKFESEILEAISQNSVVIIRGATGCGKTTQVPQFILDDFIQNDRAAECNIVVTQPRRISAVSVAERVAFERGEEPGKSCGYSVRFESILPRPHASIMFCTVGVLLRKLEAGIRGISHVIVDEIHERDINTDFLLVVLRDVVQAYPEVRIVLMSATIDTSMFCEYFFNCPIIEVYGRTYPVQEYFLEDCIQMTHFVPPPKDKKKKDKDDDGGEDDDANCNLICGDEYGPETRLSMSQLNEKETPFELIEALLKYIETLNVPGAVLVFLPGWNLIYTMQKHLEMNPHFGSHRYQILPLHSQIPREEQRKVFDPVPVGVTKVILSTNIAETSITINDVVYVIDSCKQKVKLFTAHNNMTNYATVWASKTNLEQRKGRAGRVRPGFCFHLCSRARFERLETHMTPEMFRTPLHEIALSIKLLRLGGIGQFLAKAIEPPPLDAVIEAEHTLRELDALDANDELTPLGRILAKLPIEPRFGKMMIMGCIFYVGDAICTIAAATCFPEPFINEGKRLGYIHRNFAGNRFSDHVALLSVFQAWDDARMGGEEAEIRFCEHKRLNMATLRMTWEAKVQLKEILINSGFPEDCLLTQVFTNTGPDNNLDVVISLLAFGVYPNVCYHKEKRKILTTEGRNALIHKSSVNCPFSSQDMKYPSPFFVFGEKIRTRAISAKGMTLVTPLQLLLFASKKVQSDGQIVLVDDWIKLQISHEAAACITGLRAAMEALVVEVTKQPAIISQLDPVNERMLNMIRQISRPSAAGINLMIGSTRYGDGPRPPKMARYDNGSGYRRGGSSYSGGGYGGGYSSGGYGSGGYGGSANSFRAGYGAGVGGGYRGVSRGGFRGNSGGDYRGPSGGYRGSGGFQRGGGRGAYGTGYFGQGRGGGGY
pIC50: −log10 of the molar value.
endpoint-label: pIC50

A selection of reference data follows.
compound	pIC50
CS(=O)(=O)Nc1cc(Cl)cc(NC(=O)c2cnn(-c3cc(N4CCNCC4)ccn3)c2)c1 [Example 147]	8.20
CS(=O)(=O)Nc1cc(Cl)cc(NC(=O)c2cnn(CCCO)c2)c1 [Example 126]	6.74
Cc1cn2cc(C(=O)Nc3cc(Cl)cc(NS(C)(=O)=O)c3)cc2c(C)n1 [Example 322]	6.67
CCS(=O)(=O)Nc1cc(Cl)cc(NC(=O)c2cc(-c3ccc(F)cn3)c(C)s2)c1 [Example 346]	7.59
Cc1sc(C(=O)Nc2cc(Cl)cc(NS(C)(=O)=O)c2)cc1-c1ncccn1 [Example 22]	8.60
Cn1cc(C(=O)Nc2cc(Cl)cc(NS(C)(=O)=O)c2)cc1-c1ccc(N2CC3(COC3)C2)cn1 [Example 277]	8.37
Cc1cc(F)cnc1-c1cc(C(=O)Nc2cc(Cl)cc(NS(C)(=O)=O)c2)sc1C [Example 348]	7.50
Cc1cc(N2CCC(F)(F)CC2)cnc1-c1cc(C(=O)Nc2cc(Cl)cc(NS(C)(=O)=O)c2)sc1C [Example 602]	7.24

A: COC1CN(c2cnc(-n3cc(C(=O)Nc4cc(Cl)cc(NS(C)(=O)=O)c4)cc3C)nc2)C1 [Example 404]
B: Cn1cc(C(=O)Nc2cc(F)cc(NS(C)(=O)=O)c2)cc1-c1ncc(F)cc1F [Example 558]
C: CS(=O)(=O)Nc1cc(Cl)cc(NC(=O)c2cc(C(=O)N3CCN(c4ccccc4)CC3)n(-c3ccccn3)c2)c1 [Example 654]
D: CN1CCN(c2csc(C(=O)Nc3cc(Cl)cc(NS(C)(=O)=O)c3)c2)CC1=O [Example 661]
Request: // sort entries: pIC50, high to low Return value: ordered labels per request.
Result: D, C, B, A
(D: 8.49, C: 7.67, B: 7.34, A: 7.07)

A: CS(=O)(=O)Nc1cc(Cl)cc(NC(=O)c2cnn(C3CCNCC3)c2)c1 [Example 145]
B: Cc1cc(C(=O)Nc2cc(Cl)cc(NS(C)(=O)=O)c2)cn1-c1ncc(N2CC(F)(F)C2)cn1 [Example 418]
Request: Could you point out whether the larger pIC50 belongs to A or to B ? // respond with label for picked entry
Result: B
(B: 7.77, A: 7.24)

P: CS(=O)(=O)Nc1cc(Cl)cc(NC(=O)c2cc(-c3ncc(F)cn3)cs2)c1 [Example 338]
Q: Cc1sc(C(=O)Nc2cc(Cl)cc(NS(C)(=O)=O)c2)cc1-c1ncc(C2(F)COC2)cn1 [Example 680]
Request: Sorting by pIC50 in descending order, would P or Q appear first? I would appreciate it if you answered with the label of your choice.
Result: Q
(Q: 8.52, P: 7.80)

* * *

target: Human recombinant DHX9 protein (Homo sapiens (Human)); test: DHX9 ATPase assay (ADP-Glo); settings: read-out: DHX9 Biochemical Inflection Point
pIC50: −log10 of the molar value.
endpoint-label: pIC50

COC(=O)[C@@H]1CCCN1c1csc(C(=O)Nc2cc(Cl)cc(NS(C)(=O)=O)c2)c1 6.98

a: Cn1cc(C(=O)Nc2cc(Cl)cc(NS(C)(=O)=O)c2)cc1-c1ncc(OC2CN(C(=O)C3CC3)C2)cc1F
b: CC(=O)N1CCN(c2ccnc(-n3cc(C(=O)Nc4cc(Cl)cc(NS(C)(=O)=O)c4)cn3)c2)CC1
c: CN1C(=O)N(c2ccc(-c3cc(C(=O)Nc4cc(Cl)cc(NS(C)(=O)=O)c4)cn3C)nc2)C(=O)C1(C)C
d: Cc1ccc2cc(C(=O)Nc3cc(Cl)cc(NS(C)(=O)=O)c3)cn2c1
e: CS(=O)(=O)Nc1cc(Cl)cc(NC(=O)c2cnn(C3CC4(C3)CN(CC(F)(F)F)C4)c2)c1
Request: rank_up(items): orders items by reported pIC50 in ascending numerical order. Please express your ranking as an ordered list of the labels.
Result: e, d, a, b, c
